Attribute: cytotoxicity at 10 µM
assay: Toxicity liver stage against HepG2, at 10uM; assay type: cell-based; parameters: test concentration 10 uM, cell line HepG2-A16-CD81EGFP; details: human, HepG2-A16-CD81EGFP cells; read-out: INHIBITION
Numbers only; they are read as %.

Consider the worked cases shown below.
compound: Cc1ccccc1-n1cc(CN(C)C[C@@H]2CCCN3CCCC[C@H]23)cn1
cytotoxicity at 10 µM, %: -3.09

compound: CC(C)=Cc1c(-c2ccccc2)ncn1CCN(C)S(C)(=O)=O
cytotoxicity at 10 µM, %: -0.334

Sample CS(=O)(=O)N1CCC2(CC1)CN(CCn1cccn1)C(=O)CO2 — what was its cytotoxicity at 10 µM? -2.79

Next entry: CS(=O)(=O)N1CC2(CCCN(CC3CC3)C2)Cc2ccccc21 (stereo unspecified) 2.85

Consider next the compound CS(=O)(=O)c1cccc(C(=O)NCCCN2CCc3ccccc3C2)c1 in the same way. -12.1

Moving on to the next compound: CN(C)S(=O)(=O)N1C[C@H]2CCC[C@@]2(COCc2cccnc2)C1 9.19

For CN(C)c1cc2c(nn1)CCN(C(=O)C1Cc3ccccc3S1)C2 (stereo unspecified) then? -9.52

Similarly, O=C(c1ccco1)N1CCC(n2nc(-c3cccs3)ccc2=O)CC1 ? -32.3
